tested on: VEGF-D neutralizing monoclonal antibody mAb 4A5 (VDnmAb); assay: ELISA of biotinylated synthetic peptides on streptavidin plates for VDnmAb binding; conditions: 2nd peptide library; 10 pmol peptide; VDnmAb 2 μg/ml; signal more than two-fold greater than background considered positive
READOUT LABEL: VDnmAb binding to peptide (ELISA signal, absorbance at 405 nm)

SUBSTANCE	STUDY SYSTEM	MEASURED VALUE
peptide 25 (SEQ ID NO: 64): 2nd library: mutation of two of the cysteine residues to serine (SGSGVNVFRCGGSSNEESL)	VEGF-D neutralizing monoclonal antibody mAb 4A5 (VDnmAb)	more effect
peptide 26 (SEQ ID NO: 65): 2nd library: mutation of two of the cysteine residues to serine (SGSGVNVFRSGGSCNEESL)	VEGF-D neutralizing monoclonal antibody mAb 4A5 (VDnmAb)	more effect

Reference source: patent US20110305703A1
